- system_tested: Axl (UniProt P30530)
- Sequence (P30530 26-451 limits assumed): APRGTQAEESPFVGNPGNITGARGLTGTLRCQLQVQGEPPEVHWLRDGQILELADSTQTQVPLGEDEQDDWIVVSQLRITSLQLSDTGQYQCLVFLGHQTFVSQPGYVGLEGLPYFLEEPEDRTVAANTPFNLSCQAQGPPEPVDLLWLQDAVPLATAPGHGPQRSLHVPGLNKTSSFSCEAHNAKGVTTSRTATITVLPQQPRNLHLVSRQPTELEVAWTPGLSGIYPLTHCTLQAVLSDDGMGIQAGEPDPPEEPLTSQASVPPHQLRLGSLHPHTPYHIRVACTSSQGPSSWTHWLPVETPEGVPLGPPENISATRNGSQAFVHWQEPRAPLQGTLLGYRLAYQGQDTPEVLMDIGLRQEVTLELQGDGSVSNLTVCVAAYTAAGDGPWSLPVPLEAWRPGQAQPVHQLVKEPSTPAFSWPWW
- protocol_details: ELISA, 1:9 dilution
measurement_label: Affinity ELISA CPE mutant ratio (1:9, pH 6.0/7.4)
Please reply with the value in numeric form only.

{"columns": ["binder", "data_value"],
 "data": [
  ["LC-F092N (antibody, V domains shown) VH: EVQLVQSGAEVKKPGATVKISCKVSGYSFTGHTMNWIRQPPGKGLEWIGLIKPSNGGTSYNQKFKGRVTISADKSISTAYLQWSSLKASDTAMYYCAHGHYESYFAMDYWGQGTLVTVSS VL: DIQMTQSPSSLSASVGDRVTITCKASQDVSSAVAWYQQKPGQAPRLLIYWASTRHTGVPSRFSGSGSGTEFTLTISSLQPDDFATYYCQEHNSTPLTFGQGTKVEIK", 2]
]}

Here's the next entry for you.
In: Query (binder): HC-W110R (antibody, V domains shown) VH: EVQLVQSGAEVKKPGATVKISCKVSGYSFTGHTMNWIRQPPGKGLEWIGLIKPSNGGTSYNQKFKGRVTISADKSISTAYLQWSSLKASDTAMYYCAHGHYESYFAMDYRGQGTLVTVSS VL: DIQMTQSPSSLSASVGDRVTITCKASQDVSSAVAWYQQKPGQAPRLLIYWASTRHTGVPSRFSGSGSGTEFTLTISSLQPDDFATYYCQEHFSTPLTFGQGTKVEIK ; field requested: Affinity ELISA CPE mutant ratio (1:9, pH 6.0/7.4)
Out: 1.06
